- STUDY_TARGET: Synaptic vesicular amine transporter (Bos taurus)
- ASSAY_NAME: Ratio of Km for dopamine uptake at VMAT in bovine chromaffin granule ghosts to Ki for VMAT in bovine chromaffin granule ghosts
ASSAY_METRIC: Dopamine Km / inhibitor Ki ratio
Simply state the number, no unit and no words.

Examples from the recorded data:
TEST_SMILES | Dopamine Km / inhibitor Ki ratio
C[n+]1ccc(-c2cccc(C(F)(F)F)c2)cc1 | 1.8
C=C(CN1CCN(c2ccccc2)CC1)c1ccccc1 | 24.1
C=C(C[n+]1ccc(C2CCCCC2)cc1)c1ccccc1 | 0.7

I'd like to know its Dopamine Km / inhibitor Ki ratio. The compound in question is `C[n+]1ccc(-c2cccc(O)c2)cc1` 9.7

Also check `C=C(C[n+]1ccc(-c2ccc(OC)cc2)cc1)c1ccccc1` 8.7

Also check `C[n+]1ccc(-c2cccc(Cl)c2)cc1` 1.1

Also check `CN1CC=C(c2cccc(O)c2)CC1` 1.7

---

- STUDY_TARGET: Synaptic vesicular amine transporter (Bos taurus)
- ASSAY_NAME: Ratio of Km for dopamine uptake at VMAT in bovine chromaffin granule ghosts to Ki for VMAT in bovine chromaffin granule ghosts
Reported Dopamine Km / inhibitor Ki ratio values for a set of molecules

Examples from the recorded data:
TEST_SMILES | STUDY_TARGET | Dopamine Km / inhibitor Ki ratio
COc1ccc(-c2cc[n+](C)cc2)cc1 | Synaptic vesicular amine transporter (Bos taurus) | 0.2
Cc1c[n+](C)ccc1-c1ccc(O)cc1 | Synaptic vesicular amine transporter (Bos taurus) | 0.8
C[N+]1=CC=C(c2ccccc2)CC1 | Synaptic vesicular amine transporter (Bos taurus) | 0.7
C=C(C[n+]1ccc(-c2ccccc2)cc1)c1ccc(-c2ccccc2)cc1 | Synaptic vesicular amine transporter (Bos taurus) | 11.3
CN1CC=C(c2ccccc2N)CC1 | Synaptic vesicular amine transporter (Bos taurus) | 0.1

I'd like to know its Dopamine Km / inhibitor Ki ratio. The molecule in question is `C=C(C[n+]1ccc(-c2ccccc2)cc1)c1ccccc1` 0.9

Also check `CN1CC=C(c2ccc(F)cc2)CC1` 0.9

---

Reported log10(Ki) values for a set of molecules
- STUDY_TARGET: Synaptic vesicular amine transporter (Bos taurus)
- ASSAY_NAME: Inhibition of dopamine uptake at VMAT in bovine chromaffin granule ghosts
The common logarithm of Ki in µM is what is listed.

Examples from the recorded data:
TEST_SMILES | log10(Ki)
Cc1c[n+](C)ccc1-c1ccc(O)cc1 | 1.81
C[n+]1ccc(-c2ccc(F)cc2)cc1 | 1.71
CN1CC=C(c2cccc(O)c2)CC1 | 1.41

I'd like to know its log10(Ki). The molecule in question is `CN1CC=C(c2cccc(Cl)c2)CC1` 1.44

Also check `C=C(CN1CCC(c2ccccc2)CC1)c1ccccc1` 1.21

Also check `C=C(C[n+]1ccc(-c2ccc(OC)cc2)cc1)c1ccccc1` 0.45

Also check `COc1ccc(-c2cc[n+](C)cc2)cc1` 2.03

Also check `C=C(C[n+]1ccc(-c2ccccc2)nc1)c1ccccc1` 1.13

Also check `C[n+]1ccc(-c2ccccc2)cc1` 1.96

---

- STUDY_TARGET: Synaptic vesicular amine transporter (Bos taurus) (UniProt Q27963)
- Sequence (Q27963 whole entry): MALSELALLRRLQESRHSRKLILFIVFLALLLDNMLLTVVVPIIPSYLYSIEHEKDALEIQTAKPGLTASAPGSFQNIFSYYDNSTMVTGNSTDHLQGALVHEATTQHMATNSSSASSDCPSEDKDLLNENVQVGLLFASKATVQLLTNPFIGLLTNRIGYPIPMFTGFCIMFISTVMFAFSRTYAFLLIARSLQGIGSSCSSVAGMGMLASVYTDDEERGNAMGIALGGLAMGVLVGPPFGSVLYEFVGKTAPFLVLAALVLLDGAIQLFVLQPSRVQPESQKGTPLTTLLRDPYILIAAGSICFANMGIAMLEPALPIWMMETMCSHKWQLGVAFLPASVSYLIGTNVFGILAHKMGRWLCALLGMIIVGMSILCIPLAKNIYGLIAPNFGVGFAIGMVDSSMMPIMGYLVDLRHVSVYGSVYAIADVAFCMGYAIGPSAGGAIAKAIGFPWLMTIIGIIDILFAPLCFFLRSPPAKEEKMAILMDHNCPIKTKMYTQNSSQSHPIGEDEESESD
- ASSAY_NAME: Ratio of Km for dopamine uptake at VMAT in bovine chromaffin granule ghosts to Ki for VMAT in bovine chromaffin granule ghosts
Reported Dopamine Km / inhibitor Ki ratio values for a set of molecules
Simply state the number, no unit and no words.

Examples from the recorded data:
TEST_SMILES | Dopamine Km / inhibitor Ki ratio
C=C(C[n+]1ccc(-c2cccc(O)c2)cc1)c1ccc(I)cc1 | 55
C=C(CN1CCC(c2ccccc2)CC1)c1ccccc1 | 1.8

I'd like to know its Dopamine Km / inhibitor Ki ratio. The molecule in question is `C[n+]1ccc(-c2ccc(C(F)(F)F)cc2)cc1` 1.3

Also check `C[n+]1ccc(-c2ccc(F)cc2)cc1` 1

Also check `C=C(C[n+]1ccc(-c2ccc(O)cc2)cc1)c1ccc(Br)cc1` 41.5

Also check `C[n+]1ccc(-c2ccc(Cl)cc2)cc1` 5.8

Also check `CN1CC=C(c2cccc(Cl)c2)CC1` 1.6

Also check `C[n+]1cccc(-c2cccc(O)c2)c1` 1.2

Also check `CN1CC=C(c2ccc(O)cc2)CC1` 0.3

Also check `C[n+]1ccc(-c2ccc(O)cc2)cc1` 0.7

Also check `C=C(C[n+]1ccc(-c2ccccc2)nc1)c1ccccc1` 2.7

Also check `C[n+]1cccc(-c2ccc(O)cc2)c1` 0.1
